# System: SK-OV-3
# Assay overview: NCI tumour cell line growth inhibition, 48 h
Activity calls are given as the source filed them. No stated cut-off is given here; in the data, active = GI50 up to about 1.1 µM and inactive = higher.
Measurement type: GI50

Query (compound): `Clc1ccc(-c2cc3nc4ccccc4nc3o2)cc1` ; field requested: GI50 59.4 µM (inactive)

Query (compound): `CC(=O)Oc1ccc2c3c1[C@@H]1O[C@@H]1c1cccc(c1-3)[C@@H]1O[C@H]21` ; field requested: GI50 3.44 µM (inactive)

Query (compound): CC(=O)O/C(=C(/C#N)C(=O)O)C1C(C(=O)O)C(c2ccccc2[N+](=O)[O-])C=C(c2ccco2)N1c1ccncc1 (configuration not stated) ; field requested: GI50 11.6 µM (inactive)

Query (compound): CC1(C)CCCC2OC2CCC(C)(C)C1=O (configuration not stated) ; field requested: GI50 > 100 µM (inactive)

Query (compound): `N#CC(C#N)=C1NN=C(Cl)c2ccccc21` ; field requested: GI50 > 100 µM (inactive)

Query (compound): `COc1ccc(-c2cc(=O)c3ccccc3o2)cc1N` ; field requested: GI50 > 100 µM (inactive)

Query (compound): C/C=C\C(CC(=O)NCCC1CN(C(=O)c2ccccc2)c2ccccc21)CC(=O)OC (configuration not stated) ; field requested: GI50 > 100 µM (inactive)

* * *

# Test system: RXF 393
# Assay overview: NCI tumour cell line growth inhibition, 48 h
The source made the active and inactive calls. Rule as the data show it: active = GI50 up to about 1.1 µM and inactive = higher.
Measurement type: GI50

Form field: GI50 recorded for CCOc1cc(C2CC(c3ccc(NS(=O)(=O)c4cc([N+](=O)[O-])ccc4C)cc3)=NN2S(=O)(=O)c2cc([N+](=O)[O-])ccc2C)ccc1O (stereo not given) with RXF 393 (enter value) 29 µM (inactive)

Form field: GI50 recorded for C[C@@H](CC(=O)OCc1ccccc1)OC1OC(COC(=O)C(C)(C)C)C(OC(=O)C(C)(C)C)C(OC(=O)C(C)(C)C)C1OC(=O)C(C)(C)C (stereo not given in full) with RXF 393 (enter value) > 100 µM (inactive)

Form field: GI50 recorded for `CCCNCc1nc2ccc(Br)cc2c(=O)n1CCC` with RXF 393 (enter value) 15.4 µM (inactive)

Form field: GI50 recorded for `CC(=O)N(CCN1C(=O)c2ccccc2C1=O)CCN1C(=O)c2ccccc2C1=O` with RXF 393 (enter value) > 100 µM (inactive)

Form field: GI50 recorded for CN(CCO)CCC1COc2ccccc2O1 (stereo not given) with RXF 393 (enter value) 7.98 µM (inactive)

* * *

# Tested on: NCI-H226
# Assay overview: NCI tumour cell line growth inhibition, 48 h
Calls of active or inactive are those of the source. No stated cut-off is given here; in the data, active = GI50 up to about 1.1 µM and inactive = higher.
API: response.call in yes (active), no (inactive)

Look up the recorded call for `Oc1ccc(/N=N/c2ccc(Cl)cc2)cc1` in this test. no

Look up the recorded call for `c1cc(-c2ccc(-c3ccsc3)s2)cs1` in this test. no

Look up the recorded call for `COc1cccc(/C=N/NC(=O)CSCC(=O)N/N=C/c2cccc(OC)c2OC)c1OC` in this test. no

Look up the recorded call for `CC(C)OP(=O)(OC(C)C)/C(Cl)=N/Nc1ccc([N+](=O)[O-])cc1` in this test. yes

Look up the recorded call for CC(C)=CCc1c(O)c(CC=C(C)C)c2oc3c(c(=O)c2c1O)C(C=C(C)C)Oc1cc(O)ccc1-3 (stereo not given) in this test. no

Source of measurements: ChEMBL document CHEMBL1201862
